Reference source: ChEMBL document CHEMBL1201862

Test system: NCI-H522
ASSAY: NCI tumour cell line growth inhibition, 48 h
The source made the active and inactive calls. Rule as the data show it: active = GI50 up to about 1.1 µM and inactive = higher.
One label from this list, please: active, inactive

Use these answered entries as a reference point.
MOLECULE: C[Si](C)(c1ccccc1)[C@H]1CCCC=C1CCNC1c2ccccc2CCc2ccccc21
LABEL_CLASS: inactive
--
MOLECULE: COC1=C(OC)C(=O)C(Sc2ccc3ccccc3c2)=CC1=O
LABEL_CLASS: inactive
--
MOLECULE: CCOC(CBr)OC1C(=O)OCC1(C)C (stereo not given)
LABEL_CLASS: inactive
--
MOLECULE: CNC(C#N)c1ccc(OC)cc1 (stereo not given)
LABEL_CLASS: inactive

Challenge: # fetch the recorded call for BrC1(c2ccccc2)C[n+]2c(-c3ccccc3)cc(-c3ccccc3)cc2-c2ccccc21 (stereo not given) here
Response given: active
